Hello, the source for this data is ChEMBL document CHEMBL3992501, in case you need it.

System: MDA-MB-231
Assay: Antiproliferative activity against human MDA-MB-231 cells after 48 hrs by MTT assay
Format: functional, cell-based
Conditions: MDA-MB-231, 48 h
pIC50: −log10 of the molar value.
READOUT_TYPE: pIC50

I = CC[C@@H](C(=O)[C@@H](C)[C@@H](O)[C@H](C)[C@@H]1O[C@@H]([C@@H](CC)C(=O)OCc2cn(CCCC(=O)O)nn2)CC[C@@H]1C)[C@H]1O[C@]2(C=C[C@@H](O)[C@]3(CC[C@@](C)([C@H]4CC[C@](O)(CC)[C@H](C)O4)O3)O2)[C@H](C)C[C@@H]1C
II = CC[C@@H](C(=O)[C@@H](C)[C@@H](O)[C@H](C)[C@@H]1O[C@@H]([C@@H](CC)C(=O)O)CC[C@@H]1C)[C@H]1O[C@]2(C=C[C@@H](OC(=O)Cn3cc(CO)nn3)[C@]3(CC[C@@](C)([C@H]4CC[C@](O)(CC)[C@H](C)O4)O3)O2)[C@H](C)C[C@@H]1C
Task item: Please indicate which has the smaller reported pIC50: I , or II . Bench note: the answer is the label of the chosen record.
Reply: I
(I: 4.28, II: 5.57)

---

Test system: MDA-MB-231
Experiment: Antiproliferative activity against human MDA-MB-231 cells after 48 hrs by MTT assay
Assay type: functional, cell-based
Conditions: MDA-MB-231, 48 h
This listing pairs molecules with measured pIC50.
Hey, just a heads up that pIC50 is the negative log base 10 of the concentration in molar.

MOLECULE	ASSAY_TARGET	pIC50
CC[C@@H](C(=O)[C@@H](C)[C@@H](O)[C@H](C)[C@@H]1O[C@@H]([C@@H](CC)C(=O)O)CC[C@@H]1C)[C@H]1O[C@]2(C=C[C@@H](OC(=O)Cn3cc(C(=O)O)nn3)[C@]3(CC[C@@](C)([C@H]4CC[C@](O)(CC)[C@H](C)O4)O3)O2)[C@H](C)C[C@@H]1C	MDA-MB-231	5.19

Turning to the following molecule.
Task item: Entry under review: CC[C@@H](C(=O)[C@@H](C)[C@@H](O)[C@H](C)[C@@H]1O[C@@H]([C@@H](CC)C(=O)O)CC[C@@H]1C)[C@H]1O[C@]2(C=C[C@@H](O)[C@]3(CC[C@@](C)([C@H]4CC[C@](O)(CC)[C@H](C)O4)O3)O2)[C@H](C)C[C@@H]1C [SALINOMYCIN] . Reported pIC50?
Reply: 5.19

---

System: MDA-MB-231
Assay: Antiproliferative activity against human MDA-MB-231 cells after 48 hrs by MTT assay
Format: functional, cell-based
Settings: MDA-MB-231, 48 h
pIC50: −log10 of the molar value.
READOUT_TYPE: pIC50

SMILES_REPRESENTATION	MEASURED_RESULT
CC[C@@H](C(=O)[C@@H](C)[C@@H](O)[C@H](C)[C@@H]1O[C@@H]([C@@H](CC)C(=O)O)CC[C@@H]1C)[C@H]1O[C@]2(C=C[C@@H](OC(=O)Cn3cc(-c4cccc(N)c4)nn3)[C@]3(CC[C@@](C)([C@H]4CC[C@](O)(CC)[C@H](C)O4)O3)O2)[C@H](C)C[C@@H]1C	5.48

P = CC[C@@H](C(=O)[C@@H](C)[C@@H](O)[C@H](C)[C@@H]1O[C@@H]([C@@H](CC)C(=O)O)CC[C@@H]1C)[C@H]1O[C@]2(C=C[C@@H](OC(=O)CCl)[C@]3(CC[C@@](C)([C@H]4CC[C@](O)(CC)[C@H](C)O4)O3)O2)[C@H](C)C[C@@H]1C
Q = CC[C@@H](C(=O)[C@@H](C)[C@@H](O)[C@H](C)[C@@H]1O[C@@H]([C@@H](CC)C(=O)OCc2cn(CCCCC(=O)O)nn2)CC[C@@H]1C)[C@H]1O[C@]2(C=C[C@@H](O)[C@]3(CC[C@@](C)([C@H]4CC[C@](O)(CC)[C@H](C)O4)O3)O2)[C@H](C)C[C@@H]1C
Task item: // pick larger pIC50 from pair: P vs Q Please identify the chosen entry by its label.
Reply: P

---

Test system: MDA-MB-231
Experiment: Antiproliferative activity against human MDA-MB-231 cells after 48 hrs by MTT assay
Format: functional, cell-based
Settings: MDA-MB-231, 48 h
READOUT_TYPE: pIC50
// scale note: pIC50 = -log10(conc_M); give the bare number

SMILES_REPRESENTATION	ASSAY_TARGET	pIC50
CC[C@@H](C(=O)[C@@H](C)[C@@H](O)[C@H](C)[C@@H]1O[C@@H]([C@@H](CC)C(=O)OCc2cn(CCCCCCC(=O)O)nn2)CC[C@@H]1C)[C@H]1O[C@]2(C=C[C@@H](O)[C@]3(CC[C@@](C)([C@H]4CC[C@](O)(CC)[C@H](C)O4)O3)O2)[C@H](C)C[C@@H]1C	MDA-MB-231	4.71

Here is another compound to look at.
Task item: What value of measured pIC50 is listed for CC[C@@H](C(=O)[C@@H](C)[C@@H](O)[C@H](C)[C@@H]1O[C@@H]([C@@H](CC)C(=O)OCc2cn(CCCCCCCCCCC(=O)O)nn2)CC[C@@H]1C)[C@H]1O[C@]2(C=C[C@@H](O)[C@]3(CC[C@@](C)([C@H]4CC[C@](O)(CC)[C@H](C)O4)O3)O2)[C@H](C)C[C@@H]1C ?
Reply: 5.37
